pIC50: −log10 of the molar value.
What follows is literature data on pIC50 for human PD-L1 (Homo sapiens (Human)).

Lab note: CCOc1cc(NC2CCc3c(-c4cccc(OCCCN5CCC(C)(F)CC5)c4C)cccc32)c(Cl)cc1CN[C@H]1CCC(=O)NC1 (some centres unmarked) gave pIC50 of 4.70 to 6.30

Form field pIC50, entry `COc1nc(-c2cccc(-c3cccc(NC(=O)c4cn(C)c(=O)n(C)c4=O)c3C)c2Cl)ccc1CNCC(C)(C)CO` : > 8.00

Lab note: `COc1nc(-c2cccc(-c3cccc(Nc4nc(C)nc5cccnc45)c3C)c2Cl)ccc1CN1CC2(CNC(=O)N2)C1` gave pIC50 of > 8.00

What the record says about `CCc1nc(-c2cccc(-c3cccc(Nc4nc(C)nc5cccnc45)c3C)c2Cl)ccc1CNC[C@@H]1CCC(=O)N1` : pIC50 is > 8.00

Briefly, pIC50 measured for `CC(=O)NCCNCc1cc(Cl)c2nc(-c3cccc(-c4cccc(-c5nc6c(Cl)cc(CNCCNC(C)=O)cn6n5)c4C)c3C)nn2c1` : > 8.00

// recorded pIC50 for `COc1nc(-c2cccc(-c3cccc(Nc4nc(C)nc5cccnc45)c3C)c2Cl)ccc1CN1CC(C(=O)O)C1` : > 8.00

Field pIC50 (entry `Cc1cc2nccnc2c(Nc2cccc(-c3cccc(-c4ccc(CNC[C@@H]5CCC(=O)N5)c(O)n4)c3Cl)c2C)n1` ) reads 6.00 to 8.00

Measured pIC50, `COc1nc(OCc2cccc(-c3cccc(COc4ccc(CNCc5nnn[nH]5)c(OC)n4)c3Cl)c2Cl)ccc1CNCc1nnn[nH]1` : > 8.00
